Please consider the recorded MIC for Staphylococcus aureus A-5278 in what follows.

smiles_input: CC[C@H]1OC(=O)[C@H](C)C(=O)[C@H](C)[C@@H](O[C@@H]2O[C@H](C)C[C@H](N(C)C)[C@H]2O)[C@](C)(OC/C=C/c2ccc(-c3cccnc3)s2)C[C@@H](C)C(=O)[C@H](C)[C@H]2NC(=O)O[C@@]21C
target_of_assay: Staphylococcus aureus A-5278
comparator: >
MIC, µg/mL: 100
//
smiles_input: CC[C@H]1OC(=O)[C@H](C)C(=O)[C@H](C)[C@@H](O[C@@H]2O[C@H](C)C[C@H](N(C)C)[C@H]2O)[C@](C)(OC/C=C/c2ccc(-c3ccco3)s2)C[C@@H](C)C(=O)[C@H](C)[C@H]2NC(=O)O[C@@]21C
target_of_assay: Staphylococcus aureus A-5278
comparator: =
MIC, µg/mL: 100
//
smiles_input: CC[C@H]1OC(=O)[C@H](C)C(=O)[C@H](C)[C@@H](O[C@@H]2O[C@H](C)C[C@H](N(C)C)[C@H]2O)[C@](C)(OCC#Cc2ccc(-c3cccc(C(F)(F)F)c3)s2)C[C@@H](C)C(=O)[C@H](C)[C@H]2NC(=O)O[C@@]21C
target_of_assay: Staphylococcus aureus A-5278
comparator: =
MIC, µg/mL: 25
//
smiles_input: CC[C@H]1OC(=O)[C@H](C)C(=O)[C@H](C)[C@@H](O[C@@H]2O[C@H](C)C[C@H](N(C)C)[C@H]2O)[C@](C)(OCC#Cc2ccc(-c3ccccn3)s2)C[C@@H](C)C2=NCCN3C(=O)O[C@@]1(C)[C@H]3[C@H]2C
target_of_assay: Staphylococcus aureus A-5278
comparator: >
MIC, µg/mL: 100

----------
Test system: Micrococcus luteus ATCC 9341

molecule: CC[C@H]1OC(=O)[C@H](C)C(=O)[C@H](C)[C@@H](O[C@@H]2O[C@H](C)C[C@H](N(C)C)[C@H]2O)[C@](C)(OCC#Cc2ccc(-c3ccsc3)s2)C[C@@H](C)C(=O)[C@H](C)[C@H]2NC(=O)O[C@@]21C
MIC: ≤ 0.005 µg/mL
--
molecule: CC[C@H]1OC(=O)[C@H](C)C(=O)[C@H](C)[C@@H](O[C@@H]2O[C@H](C)C[C@H](N(C)C)[C@H]2O)[C@](C)(OC/C=C/c2cncc(-c3ccco3)c2)C[C@@H](C)C(=O)[C@H](C)[C@H]2NC(=O)O[C@@]21C
MIC: 0.01 µg/mL
--
molecule: CC[C@H]1OC(=O)[C@H](C)C(=O)[C@H](C)[C@@H](O[C@@H]2O[C@H](C)C[C@H](N(C)C)[C@H]2O)[C@](C)(OCC#Cc2ccc(-c3nccs3)s2)C[C@@H](C)C(=O)[C@H](C)[C@H]2NC(=O)O[C@@]21C
MIC: 0.01 µg/mL
--
molecule: CC[C@H]1OC(=O)[C@H](C)C(=O)[C@H](C)[C@@H](O[C@@H]2O[C@H](C)C[C@H](N(C)C)[C@H]2O)[C@](C)(OC/C=C/c2cncc(-c3cccnc3)c2)C[C@@H](C)C(=O)[C@H](C)[C@H]2NC(=O)O[C@@]21C
MIC: 0.01 µg/mL
--
molecule: CC[C@H]1OC(=O)[C@H](C)C(=O)[C@H](C)[C@@H](O[C@@H]2O[C@H](C)C[C@H](N(C)C)[C@H]2O)[C@](C)(OC/C=C/c2cnc(-c3ncc(Br)s3)s2)C[C@@H](C)C(=O)[C@H](C)[C@H]2NC(=O)O[C@@]21C
MIC: 0.05 µg/mL
--
molecule: CC[C@H]1OC(=O)[C@H](C)C(=O)[C@H](C)[C@@H](O[C@@H]2O[C@H](C)C[C@H](N(C)C)[C@H]2O)[C@](C)(OCC#Cc2ccc(-c3ccccc3)s2)C[C@@H](C)C(=O)[C@H](C)[C@H]2NC(=O)O[C@@]21C
MIC: 0.05 µg/mL
--
molecule: CC[C@H]1OC(=O)[C@H](C)C(=O)[C@H](C)[C@@H](O[C@@H]2O[C@H](C)C[C@H](N(C)C)[C@H]2O)[C@](C)(OCC#Cc2ccc(-c3cncs3)s2)C[C@@H](C)C(=O)[C@H](C)[C@H]2NC(=O)O[C@@]21C
MIC: ≤ 0.005 µg/mL
--
molecule: CC[C@H]1OC(=O)[C@H](C)C(=O)[C@H](C)[C@@H](O[C@@H]2O[C@H](C)C[C@H](N(C)C)[C@H]2O)[C@](C)(OCC#Cc2ccc(-c3ccc(Cl)s3)s2)C[C@@H](C)C(=O)[C@H](C)[C@H]2NC(=O)O[C@@]21C
MIC: 0.05 µg/mL
--
molecule: CC[C@H]1OC(=O)[C@H](C)C(=O)[C@H](C)[C@@H](O[C@@H]2O[C@H](C)C[C@H](N(C)C)[C@H]2O)[C@](C)(OC/C=C/c2ccc(-c3cccc(F)c3)s2)C[C@@H](C)C(=O)[C@H](C)[C@H]2NC(=O)O[C@@]21C
MIC: 0.02 µg/mL
--
molecule: CC[C@H]1OC(=O)[C@H](C)C(=O)[C@H](C)[C@@H](O[C@@H]2O[C@H](C)C[C@H](N(C)C)[C@H]2O)[C@](C)(OC/C=C/c2cncc(-n3ccnc3)c2)C[C@@H](C)C(=O)[C@H](C)[C@H]2NC(=O)O[C@@]21C
MIC: 0.01 µg/mL
--
molecule: CC[C@H]1OC(=O)[C@H](C)[C@@H](O[C@H]2C[C@@](C)(OC)[C@@H](O)[C@H](C)O2)[C@H](C)[C@@H](O[C@@H]2O[C@H](C)C[C@H](N(C)C)[C@H]2O)[C@](C)(O)C[C@@H](C)C(=O)[C@H](C)[C@@H](O)[C@]1(C)O [Ery. A, Erythromycin A, reference compound]
MIC: 0.05 µg/mL
--
molecule: CC[C@H]1OC(=O)[C@H](C)C(=O)[C@H](C)[C@@H](O[C@@H]2O[C@H](C)C[C@H](N(C)C)[C@H]2O)[C@](C)(OCC#Cc2ccc(-c3cccc(NC(C)=O)c3)s2)C[C@@H](C)C(=O)[C@H](C)[C@H]2NC(=O)O[C@@]21C
MIC: 0.02 µg/mL
--
molecule: CC[C@H]1OC(=O)[C@H](C)C(=O)[C@H](C)[C@@H](O[C@@H]2O[C@H](C)C[C@H](N(C)C)[C@H]2O)[C@](C)(OCC#Cc2ccc(-c3cncc(C(N)=O)c3)s2)C[C@@H](C)C(=O)[C@H](C)[C@H]2NC(=O)O[C@@]21C
MIC: 0.02 µg/mL
--
molecule: CC[C@H]1OC(=O)[C@H](C)C(=O)[C@H](C)[C@@H](O[C@@H]2O[C@H](C)C[C@H](N(C)C)[C@H]2O)[C@](C)(OCC#Cc2ccc(-c3cnc4ccccc4n3)s2)C[C@@H](C)C(=O)[C@H](C)[C@H]2NC(=O)O[C@@]21C
MIC: 0.05 µg/mL
--
molecule: CC[C@H]1OC(=O)[C@H](C)C(=O)[C@H](C)[C@@H](O[C@@H]2O[C@H](C)C[C@H](N(C)C)[C@H]2O)[C@](C)(OC/C=C/c2cncc(-c3nccs3)c2)C[C@@H](C)C(=O)[C@H](C)[C@H]2NC(=O)O[C@@]21C
MIC: 0.01 µg/mL

----------
Heads up, these compounds all have MIC values measured for Streptococcus Pneumonia 5649.

smiles_input: CC[C@H]1OC(=O)[C@H](C)C(=O)[C@H](C)[C@@H](O[C@@H]2O[C@H](C)C[C@H](N(C)C)[C@H]2O)[C@](C)(OCC#Cc2ccc(-c3cccc(Cl)c3)s2)C[C@@H](C)C(=O)[C@H](C)[C@H]2NC(=O)O[C@@]21C
MIC [µg/mL]: 0.25
--
smiles_input: CC[C@H]1OC(=O)[C@H](C)C(=O)[C@H](C)[C@@H](O[C@@H]2O[C@H](C)C[C@H](N(C)C)[C@H]2O)[C@](C)(OC/C=C/c2ccc(-c3ccccn3)s2)C[C@@H](C)C(=O)[C@H](C)[C@H]2NC(=O)O[C@@]21C
MIC [µg/mL]: 0.125
--
smiles_input: CC[C@H]1OC(=O)[C@H](C)C(=O)[C@H](C)[C@@H](O[C@@H]2O[C@H](C)C[C@H](N(C)C)[C@H]2O)[C@](C)(OC/C=C/c2ccc(-c3cnc(N)s3)s2)C[C@@H](C)C(=O)[C@H](C)[C@H]2NC(=O)O[C@@]21C
MIC [µg/mL]: 1
--
smiles_input: CC[C@H]1OC(=O)[C@H](C)C(=O)[C@H](C)[C@@H](O[C@@H]2O[C@H](C)C[C@H](N(C)C)[C@H]2O)[C@](C)(OCC#Cc2ccc(-c3ncccn3)s2)C[C@@H](C)C(=O)[C@H](C)[C@H]2NC(=O)O[C@@]21C
MIC [µg/mL]: 0.25
--
smiles_input: CC[C@H]1OC(=O)[C@H](C)C(=O)[C@H](C)[C@@H](O[C@@H]2O[C@H](C)C[C@H](N(C)C)[C@H]2O)[C@](C)(OCC#Cc2ccc(-c3nccn3C)s2)C[C@@H](C)C(=O)[C@H](C)[C@H]2NC(=O)O[C@@]21C
MIC [µg/mL]: 0.25
--
smiles_input: CC[C@H]1OC(=O)[C@H](C)C(=O)[C@H](C)[C@@H](O[C@@H]2O[C@H](C)C[C@H](N(C)C)[C@H]2O)[C@](C)(OC/C=C/c2ccc(-c3cncnc3)s2)C[C@@H](C)C(=O)[C@H](C)[C@H]2NC(=O)O[C@@]21C
MIC [µg/mL]: 0.25
--
smiles_input: CC[C@H]1OC(=O)[C@H](C)C(=O)[C@H](C)[C@@H](O[C@@H]2O[C@H](C)C[C@H](N(C)C)[C@H]2O)[C@](C)(OCC#Cc2ccc(-c3cccc([N+](=O)[O-])c3)s2)C[C@@H](C)C(=O)[C@H](C)[C@H]2NC(=O)O[C@@]21C
MIC [µg/mL]: 0.5
--
smiles_input: CC[C@H]1OC(=O)[C@H](C)C(=O)[C@H](C)[C@@H](O[C@@H]2O[C@H](C)C[C@H](N(C)C)[C@H]2O)[C@](C)(OCC#Cc2ccc(-c3ccccc3)s2)C[C@@H](C)C(=O)[C@H](C)[C@H]2NC(=O)O[C@@]21C
MIC [µg/mL]: 2
